- test_target: hTRPV3 (Homo sapiens (Human), UniProt Q8NET8)
- Sequence (Q8NET8 whole entry): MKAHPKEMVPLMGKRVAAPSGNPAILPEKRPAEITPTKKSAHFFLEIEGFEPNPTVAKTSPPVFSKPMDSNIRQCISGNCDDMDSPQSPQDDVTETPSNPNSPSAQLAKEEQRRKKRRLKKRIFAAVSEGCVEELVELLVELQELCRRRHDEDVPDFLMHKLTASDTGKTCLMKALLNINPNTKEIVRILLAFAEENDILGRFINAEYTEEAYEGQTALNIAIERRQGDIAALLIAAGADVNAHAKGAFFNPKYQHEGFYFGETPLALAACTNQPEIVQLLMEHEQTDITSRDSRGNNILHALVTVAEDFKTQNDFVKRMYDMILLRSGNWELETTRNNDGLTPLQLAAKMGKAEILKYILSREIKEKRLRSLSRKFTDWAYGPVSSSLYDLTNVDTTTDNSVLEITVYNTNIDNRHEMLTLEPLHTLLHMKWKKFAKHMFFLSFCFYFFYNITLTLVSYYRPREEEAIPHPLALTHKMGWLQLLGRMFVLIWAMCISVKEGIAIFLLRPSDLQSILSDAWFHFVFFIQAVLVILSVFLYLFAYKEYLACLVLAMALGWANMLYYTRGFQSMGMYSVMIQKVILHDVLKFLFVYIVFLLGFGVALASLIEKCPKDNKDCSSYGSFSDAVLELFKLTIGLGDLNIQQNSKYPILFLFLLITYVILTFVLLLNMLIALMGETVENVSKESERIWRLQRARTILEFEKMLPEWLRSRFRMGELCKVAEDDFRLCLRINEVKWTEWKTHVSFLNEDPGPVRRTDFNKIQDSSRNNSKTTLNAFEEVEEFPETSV
- assay_summary: Whole-cell patch clamp, hTRPV3 Phase 1 / Phase 2 currents
- Assay type: cell-based
- experimental_conditions: Phase 1 current; read-out: hTRPV3 (nM) (Phase 1)
property: IC50

Ask: Which IC50 value is on record for "NC(=O)c1cc(Cl)ccc1N1CC[C@H](Oc2ccc(C(F)(F)F)cn2)C1" ?
Reply: ~883 nM

Ask: Repeat with "COc1ccccc1Oc1ccc(N2CC[C@H](Oc3ccc(C)cn3)C2)c(CO)c1"
Reply: ~2450 nM

Ask: Repeat with "Cc1ccccc1-c1ccc(CO)c(N2CC[C@H](Oc3ccc(C(F)(F)F)cn3)C2)c1"
Reply: 607 nM

---

Please go through the items and note down their IC50.
- test_target: hTRPV3 (Homo sapiens (Human))
- assay_summary: Whole-cell patch clamp, hTRPV3 Phase 1 / Phase 2 currents
- Format: cell-based
- experimental_conditions: Phase 1 current, inward, whole-cell patch clamp; read-out: hTRPV3 Patch P1 Inwd

Ask: Which IC50 value is on record for OCCc1cc(C(O)c2ccccc2Cl)ccc1N1CC[C@H](Nc2ccc(F)cn2)C1 (some centres unmarked) ?
Reply: 100 to 1000 nM

Ask: Repeat with "COCc1ccccc1Oc1ccc(N2CC[C@H](Oc3ccc(C)cn3)C2)c(CCO)c1"
Reply: 100 to 1000 nM

Ask: Repeat with "COc1ccccc1-c1ccc(N2CC[C@H](Oc3ncccc3C)C2)c(CO)n1"
Reply: > 1000 nM

Ask: Repeat with "CCc1ccccc1Oc1ccc(N2CC[C@H](Oc3ncccc3C)C2)c(CO)c1"
Reply: < 10 nM

Ask: Repeat with "OCc1cc(-c2ccccc2)ccc1N1CC[C@H](Oc2ccccn2)C1"
Reply: 100 to 1000 nM

Ask: Repeat with "OCc1cc(-c2ccccc2)ccc1N1CC[C@H](Nc2nc(C(F)(F)F)cs2)C1"
Reply: 100 to 1000 nM

Ask: Repeat with "O=C(c1cccc(Cl)c1)c1ccc(CCO)c(N2CC[C@H](Oc3ncccc3Cl)C2)c1"
Reply: 100 to 1000 nM

Ask: Repeat with Cc1cnc(C(=O)N2CCC(c3ccc(-c4ccccc4C4CC4)cc3CO)C2)cn1 (centres unmarked)
Reply: 10 to 100 nM

Ask: Repeat with Cc1cccc(C(=O)N2CCC(c3ccc(Oc4ccccc4C(C)C)cc3CO)C2)n1 (centres unmarked)
Reply: 10 to 100 nM

Ask: Repeat with CC(O)c1ccccc1-c1ccc(N2CC[C@H](Oc3ccc(C(F)(F)F)cn3)C2)c(CO)c1 (some centres unmarked)
Reply: 100 to 1000 nM

Ask: Repeat with "O=C(Nc1ccccc1)c1ccc(N2CC[C@H](Oc3ncccc3Cl)C2)c(CCO)c1"
Reply: > 1000 nM

Ask: Repeat with CCc1ccccc1-c1ccc(C2CCN(C(=O)c3ccccn3)C2)c(CO)c1 (centres unmarked)
Reply: 10 to 100 nM

Ask: Repeat with "COc1ccccc1-c1ccc(N2CC[C@H](Oc3ccc(C)cn3)C2)c(CO)n1"
Reply: > 1000 nM

Ask: Repeat with "Cc1ccccc1-c1ccc(N2CC[C@H](Nc3ccc(C(F)(F)F)cn3)C2)c(CO)n1"
Reply: > 1000 nM

Ask: Repeat with "CC(C)c1ccccc1Oc1ccc(N2CC[C@H](Oc3ccccn3)C2)c(CCO)c1"
Reply: 10 to 100 nM

Ask: Repeat with "O=C(c1ccccc1N1CC[C@H](Oc2ccc(C(F)(F)F)cn2)C1)N(Cc1ccccc1)Cc1ccccc1"
Reply: > 1000 nM

Ask: Repeat with "N#Cc1ccc(-c2ccc(N3CC[C@H](Oc4ccc(C(F)(F)F)cn4)C3)c(CO)c2)cc1"
Reply: 100 to 1000 nM

Ask: Repeat with "CCc1ccccc1Oc1ccc(CO)c(N2CC[C@H](Oc3ccc(C(F)(F)F)cn3)C2)c1"
Reply: 10 to 100 nM

Ask: Repeat with "NC(=O)c1nc(-c2ccccc2)ccc1N1CC[C@@H](Oc2ccc(C(F)(F)F)cn2)C1"
Reply: 100 to 1000 nM

Ask: Repeat with "CCc1ccccc1Oc1ccc(N2CC[C@H](Oc3ccccn3)C2)c(CCO)c1"
Reply: 10 to 100 nM

Ask: Repeat with "NCc1ccc(N2CC[C@@H](Oc3ccc(C(F)(F)F)cn3)C2)c(C(N)=O)c1"
Reply: > 1000 nM

Ask: Repeat with "Cc1ccc(O[C@H]2CCN(c3ccc(-c4ccccn4)cc3CO)C2)nc1"
Reply: > 1000 nM

Ask: Repeat with "NC(=O)c1cc(-c2ccccc2)cnc1N1CC[C@@H](Oc2ncccc2Cl)C1"
Reply: > 1000 nM

Ask: Repeat with "NC(=O)c1cc(-c2ccccc2)ccc1N1CC[C@H](Nc2ccc(C(F)(F)F)cn2)C1"
Reply: > 1000 nM

Ask: Repeat with "NC(=O)c1cc(-c2ccccn2)ccc1N1CC[C@@H](Oc2ccccn2)C1"
Reply: > 1000 nM

Ask: Repeat with "NC(=O)c1cc(-c2cccnc2)ccc1N1CC[C@H](Oc2ccc(C(F)(F)F)cn2)C1"
Reply: > 1000 nM

---

- test_target: UniProt Q8NET8
- assay_summary: Whole-cell patch clamp, hTRPV3 Phase 1 / Phase 2 currents
- Format: cell-based
- experimental_conditions: Phase 2 current; read-out: hTRPV3 (nM) (Phase 2)
property: IC50 (nM)
Number only, in nM; omit the unit.

Ask: Which IC50 value is on record for "Cc1ccccc1-c1ccc(N2CC[C@H](Oc3ccc(Cl)cn3)C2)c(CO)n1" ?
Reply: 71.3

Ask: Repeat with "Cc1ccc(C(=O)c2ccc(N3CC[C@H](Oc4ncccc4F)C3)c(CCO)c2)cc1"
Reply: 822

---

- test_target: hTRPV3 (Homo sapiens (Human))
- assay_summary: Whole-cell patch clamp, hTRPV3 Phase 1 / Phase 2 currents
- Type: cell-based
- experimental_conditions: Phase 1 current, human TRPV3; read-out: hTRPV3 (nM) Phase 1
property: IC50 (nM)
Number only, in nM; omit the unit.

Ask: Requested read-out IC50, target or system hTRPV3 (Homo sapiens (Human)), entry Cc1cccnc1C(=O)N1CCC(c2ccc(Oc3ccccc3C(C)C)cc2CO)C1 (stereo not drawn) [Compound 2-18]
Reply: 314

Ask: Repeat with CCc1ccccc1Oc1ccc(C2CCN(C(=O)c3ccc(Cl)cn3)C2)c(C(N)=O)c1 (stereo not drawn) [Compound 2-39]
Reply: 681

Ask: Repeat with CC(C)c1ccccc1-c1ccc([C@H]2CCN(C(=O)c3ccc(F)cn3)C2)c(CO)c1 [Compound 2-78]
Reply: 234

Ask: Repeat with O=C(c1ncccc1F)N1CCC(c2ccc(-c3ccccc3C3CC3)cc2CO)C1 (stereo not drawn) [Compound 2-74]
Reply: 90.5

---

Please go through the items and note down their IC50.
- test_target: hTRPV3 (Homo sapiens (Human), UniProt Q8NET8)
- assay_summary: Whole-cell patch clamp, hTRPV3 Phase 1 / Phase 2 currents
- Assay type: cell-based
- experimental_conditions: Phase 1 current, human TRPV3; read-out: hTRPV3 (nM) Phase 1
Structures can show the parent of a compound that is named as a salt.
Number only, in nM; omit the unit.

Ask: Requested read-out IC50, target or system hTRPV3 (Homo sapiens (Human), UniProt Q8NET8), entry O=C(c1ccc(Cl)cn1)N1CCC(c2ccc(-c3ccccc3C3CC3)cc2CO)C1 (stereo not drawn) [Compound 2-56]
Reply: 2.04

Ask: Repeat with Cc1ccc(CN2CCC(c3ccc(Oc4ccccc4C(C)C)cc3CO)C2)nc1 (stereo not drawn) [Compound 2-90, hydrochloride]
Reply: 812

Ask: Repeat with Cc1nccnc1C(=O)N1CCC(c2ccc(-c3ccccc3C3CC3)cc2CO)C1 (stereo not drawn) [Compound 2-104]
Reply: 756

Ask: Repeat with Cc1cnc(C(=O)N2CCC(c3ccc(-c4ccccc4C4CC4)cc3CO)C2)cn1 (stereo not drawn) [Compound 2-106]
Reply: 67

Ask: Repeat with O=C(c1ncccn1)N1CCC(c2ccc(-c3ccccc3C3CC3)cc2CO)C1 (stereo not drawn) [Compound 2-122]
Reply: 202

---

Please go through the items and note down their IC50.
- test_target: UniProt Q8NET8
- assay_summary: Whole-cell patch clamp, hTRPV3 Phase 1 / Phase 2 currents
- Assay type: cell-based
- experimental_conditions: Phase 1 current, inward, whole-cell patch clamp; read-out: hTRPV3 Patch P1 Inwd
Where a name gives a salt, the structure may show the parent alone.

Ask: Which IC50 value is on record for "NC(=O)c1ccc(-c2ccc(N3CC[C@H](Oc4ccc(C(F)(F)F)cn4)C3)c(CO)c2)cc1" ?
Reply: > 1000 nM

Ask: Repeat with COCc1ccccc1-c1ccc(C2CCN(C(=O)c3ccc(Cl)cn3)C2)c(CO)c1 (centres unmarked)
Reply: 10 to 100 nM

Ask: Repeat with CCc1ccccc1Oc1ccc(C2CC(=O)N(Cc3ccccn3)C2)c(C(N)=O)c1 (centres unmarked)
Reply: > 1000 nM

Ask: Repeat with O=C(c1ncccc1F)N1CCC(c2ccc(-c3ccccc3C3CC3)cc2CO)C1 (centres unmarked)
Reply: 10 to 100 nM

Ask: Repeat with CC(C)c1ccccc1Oc1ccc(C2CCN(C(=O)c3ncccc3Cl)C2)c(C(=O)O)c1 (centres unmarked)
Reply: > 1000 nM

Ask: Repeat with "OCc1cc(Oc2ccccc2Cl)ccc1N1CC[C@H](Nc2ncccc2Cl)C1"
Reply: 10 to 100 nM

Ask: Repeat with NC(=O)c1cc(C(O)c2ccccc2)ccc1N1CC[C@H](Oc2ccc(C(F)(F)F)cn2)C1 (some centres unmarked)
Reply: 100 to 1000 nM

Ask: Repeat with NC(=O)c1cc(-c2cccnc2)ccc1N1CC[C@@H](Oc2ccccn2)C1 [Compound 1-87, hydrochloride]
Reply: > 1000 nM

Ask: Repeat with "NC(=O)c1ccc(O[C@H]2CCN(c3ccc(-c4ccccc4)cc3CO)C2)nc1"
Reply: > 1000 nM

Ask: Repeat with Cc1cccnc1O[C@H]1CCN(c2ccc(-c3ccccc3Cl)cc2C(C)O)C1 (some centres unmarked)
Reply: 100 to 1000 nM

Ask: Repeat with "Cc1cccnc1O[C@H]1CCN(c2ccc(-c3ccccc3)cc2CCO)C1"
Reply: 100 to 1000 nM

Values compiled from patent US12435061B2.
